test protocol: activators of adaptive XBP1 UPR arm, primary screen, cell-based, CHO-XBP1 luciferase reporter, luminescence, uHTS (AID 463104);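 further: 100% = tunicamycin at 10 µg/mL and 0% = DMSO only wells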
measurement parameters: IRE1-XBP1 UPR activation, at 20 µM, active compounds read high, percent of tunicamycin response, DMSO as zero
Screen size: about 330,000 compounds; about 1,100 (0.33%) were called active. Only a selection was taken, and actives are over-represented in it overall.
Consider the following molecules and their measured activation readings.
Number only, in %; omit the unit.

[
  {
    "molecule": "COc1ccc(C(=O)COC(=O)CNC(=O)c2cccs2)cc1Br",
    "activation [%]": 0.35
  },
  {
    "molecule": "Cc1nc2c(ncn2-c2ccccc2)c(=O)n1NC(=O)CN1CCCC1",
    "activation [%]": 0.65
  }
]

Prompt: Supply recorded activation for `CCCCCC(=O)NC(=S)NNC(=O)c1ccc([N+](=O)[O-])cc1` here.
Response: 1.01

Prompt: Supply recorded activation for `CCN1C(=O)N[C@@H](c2ccccc2)[C@H](C(C)=O)[C@H]1C` here.
Response: 34.5

Prompt: Supply recorded activation for `CCCC(=O)Nc1ccc(C(=O)N/N=C/c2ccc[nH]2)cc1` here.
Response: -1.43

Prompt: Supply recorded activation for `N#CC(=C1SC=CS1)c1nc(-c2ccccc2)cs1` here.
Response: 30.8

###

test protocol: activators of adaptive XBP1 UPR arm, primary screen, cell-based, CHO-XBP1 luciferase reporter, luminescence, uHTS (AID 463104);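 further: 100% = tunicamycin at 10 µg/mL and 0% = DMSO only wells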
measurement parameters: IRE1-XBP1 UPR activation, at 20 µM, active compounds read high, percent of tunicamycin response, DMSO as zero
About 1,100 (0.33%) of roughly 330,000 compounds were called active. For the sample, actives were picked, then their nearest neighbours and some compounds at random.
Consider the following molecules and their measured activation readings.
Number only, in %; omit the unit.

[
  {
    "molecule": "COc1cc(C(=O)NC2CCN(C)CC2)ccc1Nc1ncc2c(n1)N(C1CCC(O)CC1)CCC(=O)N2C (stereo not given)",
    "unit spec": "%",
    "activation": -2.3
  },
  {
    "molecule": "Cc1c(Br)c([N+](=O)[O-])nn1C(C)C(=O)Nc1nccs1 (stereo not given)",
    "unit spec": "%",
    "activation": -1.86
  },
  {
    "molecule": "Nc1nc(COC(=O)CCC(=O)c2ccc(Cl)cc2)nc(Nc2ccccc2)n1",
    "unit spec": "%",
    "activation": 1.72
  }
]

Prompt: Supply recorded activation for `COc1ccc(-c2nc3ccccc3n2CCC(C)C)cc1OC` here.
Response: -2.77

Prompt: Supply recorded activation for `O=C(Nc1ccc2nc3n(c(=O)c2c1)CCCCC3)c1ccccc1Cl` here.
Response: 45.2

Prompt: Supply recorded activation for `Cc1nc2cc(NC(=O)CSc3nc4c(C)cccc4cc3C#N)ccc2s1` here.
Response: 30.2

Prompt: Supply recorded activation for `O=C(/C=C/c1ccc(N2CCOCC2)cc1)c1ccccc1` here.
Response: 2.92

Prompt: Supply recorded activation for `Cn1c2ccccc2c2c(C(=O)N3CCN(c4ccc(F)cc4)CC3)cn(C3CCCC3)c(=O)c21` here.
Response: 6.07

###

test protocol: activators of adaptive XBP1 UPR arm, primary screen, cell-based, CHO-XBP1 luciferase reporter, luminescence, uHTS (AID 463104);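 further: 100% = tunicamycin at 10 µg/mL and 0% = DMSO only wells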
measurement parameters: IRE1-XBP1 UPR activation, at 20 µM, percent of tunicamycin response, DMSO as zero
Among all 330,000 compounds or so, about 1,100 (0.33%) were called active.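 Rule for the calls: active = versus positive control, 20 µM dose yields 30% or more activation; inactive = the rest.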 The list comes from a sample in which actives are over-represented; it also holds close analogues and randomly drawn compounds.
Hi! Could you answer with just one of these? active, inactive

Use the examples below as a reference point.
[
  {
    "compound": "Cc1ccc(-c2nnc(-c3ccc(NC(=O)c4cccs4)cc3)o2)cc1",
    "cat": "active"
  },
  {
    "compound": "CCOC(=O)/C=C/CN(C(=O)OC(C)(C)C)S(=O)(=O)N1CC=CC1",
    "cat": "inactive"
  },
  {
    "compound": "O=C(Nc1ccc(S(=O)(=O)N2CCc3ccccc3C2)cc1)c1ccccc1",
    "cat": "inactive"
  }
]

Prompt: What outcome does the record of this test show for `O=C(COC(=O)c1ccccn1)Nc1cccc2ccccc12` ?
Response: inactive

Prompt: What outcome does the record of this test show for Nc1ccc(OCC(O)C[n+]2ccc(CCS(=O)(=O)[O-])cc2)cc1 (stereo not given) ?
Response: inactive

Prompt: What outcome does the record of this test show for `c1ccc2c(c1)C(=NC1CCCCC1)NC2=NC1CCCCC1` ?
Response: inactive

Prompt: What outcome does the record of this test show for `N#Cc1ccccc1NC(=O)COc1c(Br)cc(Br)c2cccnc12` ?
Response: active

Prompt: What outcome does the record of this test show for `N#CC(=C1CCCC1)c1nc(-c2ccc(Cl)cc2)cs1` ?
Response: inactive

Prompt: What outcome does the record of this test show for CCN(CC)C(=O)CSC1c2ccccc2C(=O)N1c1ccccc1 (stereo not given) ?
Response: inactive

Prompt: What outcome does the record of this test show for `Cc1noc(C)c1CSCC(=O)N(CCC(C)C)c1c(N)n(Cc2ccccc2)c(=O)[nH]c1=O` ?
Response: inactive

Prompt: What outcome does the record of this test show for `COc1ccc(-c2ccc(CCC(=O)O)n2-c2ccc(O)cc2)cc1` ?
Response: inactive

Prompt: What outcome does the record of this test show for `Clc1ccc(CSc2nnc([C@@H]3CCCN3)o2)cc1` ?
Response: inactive

Prompt: What outcome does the record of this test show for `c1ccc(-c2csc(N3CCc4ccccc4C3)n2)cc1` ?
Response: inactive

Prompt: What outcome does the record of this test show for `COc1ccc(-c2c(NC(=O)c3ccco3)oc3ccc(Cl)cc3c2=O)cc1` ?
Response: inactive

Prompt: What outcome does the record of this test show for `COc1ccc(CNC(=O)CCC(=O)Nc2nnc(C(C)C)s2)cc1` ?
Response: inactive

Prompt: What outcome does the record of this test show for `COc1cc(N=Cc2c(O)c3ccccc3oc2=O)c(OC)cc1Cl` ?
Response: inactive
